- Measured On: KDR (Homo sapiens (Human), UniProt P35968)
- Sequence (P35968 789-1354): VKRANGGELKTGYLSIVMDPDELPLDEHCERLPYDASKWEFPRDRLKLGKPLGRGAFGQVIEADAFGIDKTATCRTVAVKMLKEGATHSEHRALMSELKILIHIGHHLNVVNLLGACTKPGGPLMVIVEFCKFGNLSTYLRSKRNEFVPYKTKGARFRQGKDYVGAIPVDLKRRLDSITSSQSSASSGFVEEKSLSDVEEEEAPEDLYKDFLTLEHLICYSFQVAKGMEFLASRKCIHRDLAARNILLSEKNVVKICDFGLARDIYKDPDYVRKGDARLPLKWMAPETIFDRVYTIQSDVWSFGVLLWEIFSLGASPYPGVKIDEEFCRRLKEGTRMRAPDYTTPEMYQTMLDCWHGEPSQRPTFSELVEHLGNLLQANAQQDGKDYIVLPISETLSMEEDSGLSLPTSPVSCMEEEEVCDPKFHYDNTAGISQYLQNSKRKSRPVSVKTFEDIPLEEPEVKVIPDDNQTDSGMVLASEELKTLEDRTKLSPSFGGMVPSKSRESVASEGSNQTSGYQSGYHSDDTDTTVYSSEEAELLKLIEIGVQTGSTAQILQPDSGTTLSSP
pIC50: −log10 of the molar value.
Parameter Measured: pIC50

INSERT INTO results (molecule, measured_on, experimental_result) VALUES
  ('COc1ccc(NC(=O)Nc2ccc(-c3csc4c(-c5cnn(CC(C)(C)O)c5)cnc(N)c34)cc2)cc1 [Example 4]', 'KDR (Homo sapiens (Human), UniProt P35968)', 8.30);
